# Test system: T47D
# assayNotes: NCI tumour cell line growth inhibition, 48 h
Calls of active or inactive are those of the source. Rule as the data show it: active = GI50 up to about 1.1 µM and inactive = higher.
Pick one and only one: label 1 (active), label 0 (inactive)

Below, 6 compounds whose answers are already recorded.
{"compound": "Cc1cn(C2CC(n3cc(Cn4cc(F)c(=O)[nH]c4=O)nn3)C(CO)O2)c(=O)[nH]c1=O (stereo not given)", "tgt": "T47D", "className": "label 0"}
{"compound": "COC(=O)c1c(O)ccc2c1c1c(n2Cc2ccccc2OC)C(=O)c2ccccc2C1", "tgt": "T47D", "className": "label 0"}
{"compound": "COCc1nc(N)nc(N2N=C(C)CC2(C)C)n1", "tgt": "T47D", "className": "label 0"}
{"compound": "c1ccc2c(c1)Oc1cccc3cccc-2c13", "tgt": "T47D", "className": "label 0"}
{"compound": "CCc1ccccc1N1CCN(C(=O)c2cc(OC)c(OC)c(OC)c2)CC1", "tgt": "T47D", "className": "label 0"}
{"compound": "CCCS(=O)(=O)O", "tgt": "T47D", "className": "label 0"}

Query: Lab log entry: CCOC(=O)C1=C(C)N(c2ccc(Cl)cc2)C2(O)C=CC(=O)C3C(=O)N(c4ccccc4)C(=O)C132 (stereo not given) — outcome as called in the assay?
Reply: label 0

Query: Next compound: C=C1C(=O)OC2CC3(C)CCCC(C)C3=CC12 (stereo not given)
Reply: label 0

Query: Another compound to check: COc1cc(C(=O)O)c([N+](=O)[O-])c(OC)c1OC
Reply: label 0

Query: // query: COC(=O)C1Cc2ccc3c(c2C1=O)CCCC3 (stereo not given)
Reply: label 0

---

# System: LOX IMVI
# assayNotes: NCI tumour cell line growth inhibition, 48 h
Calls of active or inactive are those of the source. Cut-off read from the data, not from the text of the source: active = GI50 up to about 1.1 µM and inactive = higher.
readoutKind: GI50

{"compound": "CC1C(=O)N(c2ccccc2)NC12CCCc1ccccc12 (stereo not drawn)", "readoutKind": "GI50", "val": "> 100 µM (inactive)"}
{"compound": "CSCSCC(CO)NC(=O)/C=C/c1c(C)nc(O)nc1O (stereo not drawn)", "readoutKind": "GI50", "val": "> 100 µM (inactive)"}
{"compound": "O=c1[nH]c2cccccc-2c1-c1nc2ccccc2[nH]1", "readoutKind": "GI50", "val": "14.9 µM (inactive)"}
{"compound": "Nc1c(-c2ccc(-c3c(N)[n+]([O-])c4ccccc4[n+]3[O-])cc2)[n+]([O-])c2ccccc2[n+]1[O-]", "readoutKind": "GI50", "val": "9.75 µM (inactive)"}
{"compound": "Cc1nc(SCC(N)=O)c2sc(=S)n(-c3ccccc3)c2n1", "readoutKind": "GI50", "val": "> 10 µM (inactive)"}
{"compound": "O=[N+]([O-])c1ccc(/N=N\\c2c(O)c(S(=O)(=O)O)cc3cc(S(=O)(=O)O)ccc23)cc1", "readoutKind": "GI50", "val": "> 100 µM (inactive)"}
{"compound": "O=C(O)c1cc(-c2ccc3cc4c(cc3c2)OCO4)nc2ccccc12", "readoutKind": "GI50", "val": "29.3 µM (inactive)"}
{"compound": "CCN(CC)CC(C(=O)Nc1c(C)cccc1C)/C(C)=N/NC(N)=S (stereo not drawn)", "readoutKind": "GI50", "val": "> 100 µM (inactive)"}

Query: # GI50 lookup, item O=C(O)C12C=CC(C1)c1ccccc12 (stereo not drawn)
Reply: > 100 µM (inactive)

Query: Cool, now COC(=O)c1cc(C)n(NC(=O)OC(C)(C)C)c1C
Reply: > 100 µM (inactive)

Query: CCC[C@@H](O)C[C@@H]1CCC[C@H](C[C@@H](O)CC)N1C ?
Reply: 88.1 µM (inactive)

Query: Nc1ccc(-c2nc3ccc(F)cc3s2)cc1Cl ?
Reply: > 73.1 µM (inactive)

Query: Now give it for CC(=O)[C@H]1CCC2[C@@H]3CC=C4C(O)C(OS(=O)(=O)O)CC[C@]4(C)C3CC[C@@]21C (stereo partly drawn) too.
Reply: > 100 µM (inactive)

---

Catalogue of GI50 values
# Test system: HCT-116
# assayNotes: NCI tumour cell line growth inhibition, 48 h
Active and inactive are the calls of the source. No stated cut-off is given here; in the data, active = GI50 up to about 1.1 µM and inactive = higher.

Worked set:
{"compound": "COc1ccc(-c2c(N)n(-c3nc4ccccc4s3)c(=O)c3cc([N+](=O)[O-])ccc23)cc1", "tgt": "HCT-116", "val": "20.1 µM (inactive)"}
{"compound": "CCOC(=O)c1[nH]c(-c2[nH]c(-c3[nH]c(-c4[nH]c(C(=O)OCC)c(C)c4C(=O)OCC)c(C(=O)OCC)c3C)c(C)c2C(=O)OCC)c(C(=O)OCC)c1C", "tgt": "HCT-116", "val": "> 100 µM (inactive)"}
{"compound": "COc1ccc(/C=C(/C)[N+](=O)[O-])cc1", "tgt": "HCT-116", "val": "1.75 µM (inactive)"}
{"compound": "NS(=O)(=O)c1cc2c(cc1Cl)NC(C(=O)c1cc(=O)c3ccc(O)cc3o1)=NS2(=O)=O", "tgt": "HCT-116", "val": "> 100 µM (inactive)"}

Please look at the following compound next.
Query: Which value of GI50 has been reported for CCOC1=NC(O)c2cccn2-c2sccc21 (stereo not given) in the records?
Reply: > 100 µM (inactive)

---

# Tested on: DMS-273
# assayNotes: NCI tumour cell line growth inhibition, 48 h
Active and inactive are the calls of the source. Cut-off read from the data, not from the text of the source: active = GI50 up to about 1.1 µM and inactive = higher.
readoutKind: GI50

Sample records with GI50:
{"compound": "CCn1c(=O)nc2n(-c3ccccc3)c3ccccc3nc-2c1=O", "readoutKind": "GI50", "val": "12.7 µM (inactive)"}
{"compound": "CCOC(=O)NC(=O)c1cn(CCN2CCN(C(=O)NCCCCCCNC(=O)N3CCN(CCn4cc(C(=O)NC(=O)OCC)c(=O)[nH]c4=O)CC3)CC2)c(=O)[nH]c1=O", "readoutKind": "GI50", "val": "> 100 µM (inactive)"}
{"compound": "Cc1c(C(=O)NCCO)[n+]([O-])c2cc(Cl)ccc2[n+]1[O-]", "readoutKind": "GI50", "val": "> 100 µM (inactive)"}
{"compound": "COC(=O)c1cc(C)n(NC(=O)OC(C)(C)C)c1C", "readoutKind": "GI50", "val": "> 100 µM (inactive)"}
{"compound": "Nc1ccn(CCOC(c2ccccc2)P(=O)(O)O)c(=O)n1 (centres undefined)", "readoutKind": "GI50", "val": "> 100 µM (inactive)"}

Consider the record given below.
Query: Quick check: GI50 of CCOC(=O)C(Oc1ccc(OC)c2c1C(=O)CCC2)c1ccccc1 (centres undefined) ?
Reply: 98.9 µM (inactive)

---

# Tested on: UO-31
# assayNotes: NCI tumour cell line growth inhibition, 48 h
Active and inactive are the calls of the source. Cut-off read from the data, not from the text of the source: active = GI50 up to about 1.1 µM and inactive = higher.
Outcome field: choose from active, inactive

{"compound": "Cc1ccc2c(c1)Sc1ccc(/N=N/N(C)C)cc1N2C", "className": "inactive"}
{"compound": "O=C1C(CO)=C(CO)C(=O)c2c(O)ccc(O)c21", "className": "active"}
{"compound": "Cc1ccc(NC(=S)NNC(=O)c2cc(-c3ccccc3)nc3ccccc23)cc1C", "className": "inactive"}
{"compound": "O=C(Cn1c(C(=O)/C=C/c2ccco2)nc2ccccc21)c1ccc(Cl)cc1", "className": "inactive"}
{"compound": "CN(C)c1ccc(/C=C(\\C#N)c2nc(-c3cc4ccccc4oc3=O)cs2)cc1", "className": "inactive"}

Query: Entry O=C1OC2C=CCC1C2 (stereo not given) : call = ?
Reply: inactive

Query: Another compound: COC(=O)C(CCCC1(c2ccccc2)OCCO1)C(C)=O (stereo not given)
Reply: inactive

Query: Try this compound too: O=C(/C=C1\Nc2ccccc2N\C1=C\C(=O)c1ccc(Cl)cc1)c1ccccc1
Reply: inactive

Query: And the next one, Fc1ccc(Oc2nc3ccc(C(F)(F)F)cc3nc2-c2ccccc2)cc1 ?
Reply: inactive

Query: Next: c1ccc(C2CC(NC3CCCCC3)=Nc3ccccc3N2)cc1 (stereo not given)
Reply: inactive

Query: Another: CCCCC(C)C(OC(=O)CC(CC(=O)O)C(=O)O)C(CC(C)CC(O)CCCCC(O)CC(O)C(C)N)OC(=O)CC(CC(=O)O)C(=O)O (stereo not given)
Reply: inactive

Query: Next up: Cc1cc(O)cc(O)c1C(=O)O[C@]1(C)C(=O)C=C2C=C(/C=C/C(=O)O)OC=C2C1=O
Reply: inactive

Query: Then CCOC(=O)c1c(C)[n+]([O-])c2cc(Cl)c(Cl)cc2[n+]1[O-] ?
Reply: inactive

Query: Check COc1cc2[nH]c3c(c2cc1OC)CCN[C@@]31CC[C@@]2(CC3c4c(cc(OC)c(O)c42)CCN3C)C[C@@H]1OC (stereo not given in full) too.
Reply: inactive

Query: Same thing, different compound: CCOC(=O)c1sc(N)nc1N1CCCC1
Reply: inactive

Query: Try Oc1c(Br)cc(/C=C/c2ccnc(/C=C/c3cc(Br)c(O)c(Br)c3)c2)cc1Br next.
Reply: inactive

Query: Queued: COc1ccc2nc3cc([N+](=O)[O-])ccc3c(Nc3ccc(S(=O)(=O)N=C(N)N)cc3)c2c1
Reply: inactive

Query: Please answer likewise for CC(=O)NNc1nc(C)c(C(/C=C/c2ccc(/C=C/C(=N\NC(=O)c3ccncc3)c3sc(NNC(C)=O)nc3C)cc2)=N/NC(=O)c2ccncc2)s1
Reply: inactive

Query: Then what about the compound Cc1cc2c(cc1C)C(=O)c1ncccc1C2=O ?
Reply: inactive

Query: Also, FC(F)(F)c1cccc(-c2nc3nc(Cl)c(Cl)nc3[nH]2)c1 please.
Reply: inactive
